# Test system: HCI-027 (organoid from a triple-negative breast cancer xenograft)
# Procedure Summary: CTG-3D luminescence at 96 h relative to day-0 seeding control (ratio to day 0); higher = more growth / less cytotoxicity; PDxO 3D drug screen (set 2), 96 h, CTG-3D normalised to day-0 seeding control.
# Condition Label: 10 µM; days in culture: 186
In this section, each of the compounds is paired with its reported CTG-3D luminescence at 96 h.
Provide a numeric answer; units are not to be included.

**Q:** Kindly indicate its recorded CTG-3D luminescence at 96 h. Item: C[C@@H](Nc1cc(F)cc(F)c1)c1cc(C(=O)N(C)C)cc2c(=O)cc(N3CCOCC3)oc12
**A:** 1.46

**Q:** For the compound CC(=O)c1c(C)c2cnc(Nc3ccc(N4CCNCC4)cn3)nc2n(C2CCCC2)c1=O , give its measured CTG-3D luminescence at 96 h value.
**A:** 1.4

**Q:** Please report the measured CTG-3D luminescence at 96 h for COc1cccc2c1C(=O)c1c(O)c3c(c(O)c1C2=O)C[C@@](O)(C(=O)CO)C[C@@H]3O[C@H]1C[C@H](N)[C@@H](O)[C@H](C)O1 [epirubicin]
**A:** 0.0934

// next entry
**Q:** // fetch CTG-3D luminescence at 96 h given entry O=C(c1cc(Cc2n[nH]c(=O)c3ccccc23)ccc1F)N1CCN(C(=O)C2CC2)CC1
**A:** 1.58

---

This section presents compounds with their documented CTG-3D luminescence at 96 h values.
# Test system: HCI-008 (organoid from a HER2-enriched breast cancer xenograft)
# Procedure Summary: CTG-3D luminescence at 96 h relative to day-0 seeding control (ratio to day 0); higher = more growth / less cytotoxicity; PDxO 3D drug screen, 96 h, CTG-3D normalised to day-0 seeding control.
# Condition Label: 625 fM; days in culture: 228
Respond numerically, and do not add a unit to the figure.

Worked examples, 3 compounds total:
**Q:** Give CTG-3D luminescence at 96 h for Cc1cc(Nc2ncc(Cl)c(Nc3ccccc3S(=O)(=O)C(C)C)n2)c(OC(C)C)cc1C1CCNCC1 [ceritinib] tested on HCI-008.
**A:** 1.59

**Q:** For HCI-008, give CTG-3D luminescence at 96 h of the listed compound: C[C@]12CC[C@@H]3c4ccc(O)cc4C[C@@H](CCCCCCCCC[S+]([O-])CCCC(F)(F)C(F)(F)F)[C@H]3[C@@H]1CC[C@@H]2O (stereo partly drawn) [fulvestrant]
**A:** 1.89

**Q:** // fetch CTG-3D luminescence at 96 h for NC(=O)c1cccc2cn(-c3ccc([C@@H]4CCCNC4)cc3)nc12 [niraparib] ; system: HCI-008
**A:** 1.72

More entries:
**Q:** # return CTG-3D luminescence at 96 h of CC[C@H](NC(=O)[C@H](C)NC)C(=O)N1C[C@@H](O)C[C@H]1Cc1c(-c2[nH]c3cc(F)ccc3c2C[C@@H]2C[C@H](O)CN2C(=O)[C@H](CC)NC(=O)[C@H](C)NC)[nH]c2cc(F)ccc12 [birinapant] (system: HCI-008)
**A:** 1.43

**Q:** Fill in CTG-3D luminescence at 96 h for CCN(c1cc(C#CCN2CCOCC2)cc(C(=O)NCc2c(C)cc(C)[nH]c2=O)c1C)[C@H]1CC[C@H](N(C)CCOC)CC1 tested with HCI-008.
**A:** 1.77

**Q:** Fetch value of CTG-3D luminescence at 96 h on HCI-008 for O=C(O)C1(C(=O)O)CCC1.[NH2-].[NH2-].[Pt+2] [carboplatin] .
**A:** 1.63

**Q:** Print HCI-008 CTG-3D luminescence at 96 h for CCc1c2c(nc3ccc(O)cc13)-c1cc3c(c(=O)n1C2)COC(=O)[C@]3(O)CC [SN-38] .
**A:** 1.93

**Q:** Enter measured CTG-3D luminescence at 96 h, system HCI-008, for the compound shown: C[C@@H]1COCCN1c1cc(C2([S@](C)(=N)=O)CC2)nc(-c2cc[nH]c3nccc2-3)n1 [ceralasertib]
**A:** 1.72

---

Listed compounds paired with reported CTG-3D luminescence at 96 h
# System: HCI-011.E2 (organoid from an ER-positive breast cancer xenograft)
# Procedure Summary: CTG-3D luminescence at 96 h relative to day-0 seeding control (ratio to day 0); higher = more growth / less cytotoxicity; PDxO 3D drug screen, 96 h, CTG-3D normalised to day-0 seeding control.
# Condition Label: 625 fM; days in culture: 74
Simply state the number, no unit and no words.

The following compounds have reported results that may help.
**Q:** Annotate the compound CNC(=O)c1cccc(-c2ccc3c(N4CCOC[C@@H]4C)nc(N4CCOC[C@@H]4C)nc3n2)c1 with its measured CTG-3D luminescence at 96 h.
**A:** 2.38

**Q:** Please give measured CTG-3D luminescence at 96 h of the following entry: CCN1CCN(Cc2ccc(Nc3ncc(F)c(-c4cc(F)c5nc(C)n(C(C)C)c5c4)n3)nc2)CC1
**A:** 2.79

**Q:** Tell me measured CTG-3D luminescence at 96 h for Cc1cc(Nc2ncc(Cl)c(Nc3ccccc3S(=O)(=O)C(C)C)n2)c(OC(C)C)cc1C1CCNCC1 please.
**A:** 1.72

# ---- query compound ----
**Q:** Please give the documented CTG-3D luminescence at 96 h of C=CC(=O)N1CCC[C@@H](n2nc(-c3ccc(Oc4ccccc4)cc3)c3c(N)ncnc32)C1
**A:** 2.75

---

Entries and their CTG-3D luminescence at 96 h
# Test system: HCI-023 (organoid from a triple-negative breast cancer xenograft)
# Procedure Summary: CTG-3D luminescence at 96 h relative to day-0 seeding control (ratio to day 0); higher = more growth / less cytotoxicity; PDxO 3D drug screen (set 2), 96 h, CTG-3D normalised to day-0 seeding control.
# Condition Label: 100 µM; days in culture: 238

# example entries with known answers
**Q:** Tell me its CTG-3D luminescence at 96 h given Nc1cc(C(F)(F)F)c(-c2cc(N3CCOCC3)nc(N3CCOCC3)n2)cn1 as the entry.
**A:** 0.628

**Q:** Consider the compound CCOc1ccn(-c2ccc(F)cc2)c(=O)c1C(=O)Nc1ccc(Oc2ccnc(N)c2Cl)c(F)c1 and give its recorded CTG-3D luminescence at 96 h.
**A:** 0.917

**Q:** Could you please provide reported CTG-3D luminescence at 96 h for O=C(c1cc(Cc2n[nH]c(=O)c3ccccc23)ccc1F)N1CCN(C(=O)C2CC2)CC1 ? Thanks!
**A:** 0.856

Read the next record carefully.
**Q:** Tell me CTG-3D luminescence at 96 h reported for C[C@@H](Nc1cc(F)cc(F)c1)c1cc(C(=O)N(C)C)cc2c(=O)cc(N3CCOCC3)oc12
**A:** 1.05

---

# Tested on: HCI-024 (organoid from a breast cancer xenograft)
# Procedure Summary: CTG-3D luminescence at 96 h relative to day-0 seeding control (ratio to day 0); higher = more growth / less cytotoxicity; PDxO 3D drug screen (set 2), 96 h, CTG-3D normalised to day-0 seeding control.
# Condition Label: 0.00025 µM; days in culture: 231
Result Type: CTG-3D luminescence at 96 h

Previously resolved entries follow.
**Q:** Please indicate CTG-3D luminescence at 96 h recorded for C[C@@H](Nc1cc(F)cc(F)c1)c1cc(C(=O)N(C)C)cc2c(=O)cc(N3CCOCC3)oc12 [AZD-8186]
**A:** 1.25

**Q:** Assign CTG-3D luminescence at 96 h to the following record: CO[C@H]1C[C@@H]2CC[C@@H](C)[C@@](O)(O2)C(=O)C(=O)N2CCCC[C@H]2C(=O)O[C@H]([C@H](C)C[C@@H]2CC[C@@H](O)[C@H](OC)C2)CC(=O)[C@H](C)/C=C(\C)[C@@H](O)[C@@H](OC)C(=O)[C@H](C)C[C@H](C)/C=C/C=C/C=C/1C [rapamycin]
**A:** 1.11

**Q:** State its CTG-3D luminescence at 96 h: Cc1c(CN2CCN(C(=O)[C@H](C)O)CC2)sc2c(N3CCOCC3)nc(-c3cnc(N)nc3)nc12 [apitolisib]
**A:** 1.28

Further cases:
**Q:** Name the recorded CTG-3D luminescence at 96 h of the item CCOc1ccn(-c2ccc(F)cc2)c(=O)c1C(=O)Nc1ccc(Oc2ccnc(N)c2Cl)c(F)c1 [ASLAN002] in your answer.
**A:** 1.2

---

# Test system: HCI-001 (organoid from a triple-negative breast cancer xenograft)
# Procedure Summary: CTG-3D luminescence at 96 h relative to day-0 seeding control (ratio to day 0); higher = more growth / less cytotoxicity; PDxO 3D drug screen (set 2), 96 h, CTG-3D normalised to day-0 seeding control.
# Condition Label: 100 µM; days in culture: 401
Result Type: CTG-3D luminescence at 96 h
Please reply with the number alone, leaving off any unit.

**Q:** Determine from records and report CTG-3D luminescence at 96 h for CC(=O)O[C@@]12CO[C@@H]1C[C@H](O)[C@@]1(C)C(=O)[C@H](O)C3=C(C)[C@@H](OC(=O)[C@H](O)[C@@H](NC(=O)OC(C)(C)C)c4ccccc4)C[C@@](O)([C@@H](OC(=O)c4ccccc4)[C@H]21)C3(C)C [docetaxel]
**A:** 0.514

---
**Q:** # return recorded CTG-3D luminescence at 96 h for entry CO[C@H]1C[C@@H]2CC[C@@H](C)[C@@](O)(O2)C(=O)C(=O)N2CCCC[C@H]2C(=O)O[C@H]([C@H](C)C[C@@H]2CC[C@@H](OCCO)[C@H](OC)C2)CC(=O)[C@H](C)/C=C(\C)[C@@H](O)[C@@H](OC)C(=O)[C@H](C)C[C@H](C)/C=C/C=C/C=C/1C [everolimus]
**A:** -0.00223

**Q:** Answer with reported CTG-3D luminescence at 96 h of CC(=O)c1c(C)c2cnc(Nc3ccc(N4CCNCC4)cn3)nc2n(C2CCCC2)c1=O [palbociclib]
**A:** 0.962

**Q:** Specify CTG-3D luminescence at 96 h for CO[C@H]1C[C@@H]2CC[C@@H](C)[C@@](O)(O2)C(=O)C(=O)N2CCCC[C@H]2C(=O)O[C@H]([C@H](C)C[C@@H]2CC[C@@H](O)[C@H](OC)C2)CC(=O)[C@H](C)/C=C(\C)[C@@H](O)[C@@H](OC)C(=O)[C@H](C)C[C@H](C)/C=C/C=C/C=C/1C [rapamycin] and stop.
**A:** 0.00642

**Q:** Determine from records and report CTG-3D luminescence at 96 h for Cc1c(CN2CCN(C(=O)[C@H](C)O)CC2)sc2c(N3CCOCC3)nc(-c3cnc(N)nc3)nc12 [apitolisib]
**A:** 0.517
